biological target: human cloned CHRM4 receptor (M4_CHO cells) (Homo sapiens); construct: expressed in transfected cells; host or cells: CHO-K1; test: CHRM4 Ca++ Flux Assay (agonist mode, FDSS 7000EX); format: cell-based; conditions: geometric mean if tested more than once, read-out: M4 FDSS EC50
Sequence (P08173 whole entry): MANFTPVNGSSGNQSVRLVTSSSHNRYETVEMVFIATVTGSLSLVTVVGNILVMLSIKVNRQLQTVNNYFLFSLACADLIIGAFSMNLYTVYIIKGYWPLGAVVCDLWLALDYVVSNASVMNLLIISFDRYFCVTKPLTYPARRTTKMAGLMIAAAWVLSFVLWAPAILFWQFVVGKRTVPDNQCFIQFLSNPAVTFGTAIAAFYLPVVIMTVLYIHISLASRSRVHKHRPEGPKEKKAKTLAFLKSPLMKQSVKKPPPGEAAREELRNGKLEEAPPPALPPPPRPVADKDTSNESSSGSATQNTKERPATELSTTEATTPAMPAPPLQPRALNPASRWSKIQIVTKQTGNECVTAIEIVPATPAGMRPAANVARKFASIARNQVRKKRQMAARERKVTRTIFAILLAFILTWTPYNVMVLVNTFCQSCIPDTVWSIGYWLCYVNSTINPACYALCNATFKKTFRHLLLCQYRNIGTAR
Property name: EC50
For clarity, give the value followed by its unit.

Please review the following examples before continuing.
Compound	Property name	Val
O=C(C1COC1)N1CC2(CC[C@@H](N3CCC(c4ccccc4OCCC(F)(F)F)CC3)C2)C1 [Example 7GG]	EC50	7 nM
COc1ccccc1C1CCN([C@@H]2CCC3(C2)CN(c2ccc(C)nc2)C3)CC1 [Example 5D]	EC50	156 nM

Respectfully, I request EC50 for each entry included below.
1. c1ccc(C2CCN([C@@H]3CCC4(C3)CN(c3nnco3)C4)CC2)c(OC2COC2)c1 [Example 1D]
2. Cc1ncc(COc2ccccc2C2CCN([C@@H]3CCC4(C3)CN(C(=O)C3(F)CC3)C4)CC2)o1 (single isomer, unassigned) [Example 7V]
3. O=C(N1CC2(CC[C@@H](N3CCC(c4ccccc4OCC4CC4)CC3)C2)C1)C1(F)CC1 (single isomer, unassigned) [Example 7O]
4. COc1ccccc1C1CCN([C@@H]2CCC3(C2)CN(c2cncnc2)C3)CC1 [Example 5A]
5. O=C(N1CC2(CC[C@@H](N3CCC(c4ccccc4OC4CC5(COC5)C4)CC3)C2)C1)C1(F)CC1 (single isomer, unassigned) [Example 11C]
6. O=C(N1CC2(CC[C@@H](N3CCC(c4ccccc4OCc4ncccn4)CC3)C2)C1)C1(F)CC1 (single isomer, unassigned) [Example 7M]

1: 1 nM; 2: 353 nM; 3: 9 nM; 4: 2 nM; 5: 2 nM; 6: 1 nM

Could you tell me EC50 for each of these compounds? They are listed below.
1. Fc1cncc(N2CC3(CC[C@@H](N4CCC(c5cc(F)ccc5OC5CCOCC5)CC4)C3)C2)c1 (single isomer, unassigned) [Example 10B]
2. CC(C)(O)COc1ccccc1C1CCN([C@@H]2CCC3(C2)CN(c2nnco2)C3)CC1 [Example 2A]
3. O=C(C1COC1)N1CC2(CC[C@@H](N3CCC(c4ccc(F)cc4OC(F)F)CC3)C2)C1 [Example 6B]
4. COc1ccc(Cl)cc1C1CCN([C@H]2CCC3(C2)CN(C(=O)C2(F)CC2)C3)CC1 (single isomer, unassigned) [Example 8A]
5. CC(C)(O)CCOc1ccccc1C1CCN([C@@H]2CCC3(C2)CN(C(=O)C2COC2)C3)CC1 [Example 7CC]
6. O=C(C1COC1)N1CC2(CC[C@@H](N3CCC(c4ccccc4OC(F)(F)F)CC3)C2)C1 [Example 12A]

1. 45 nM
2. 10 nM
3. 5 nM
4. 36 nM
5. 5 nM
6. 2 nM

====

target: human cloned CHRM2 receptor (M2_CHO cells) (Homo sapiens); construct: expressed in transfected cells; host or cells: CHO-K1; assay: CHRM2 Ca++ Flux Assay (agonist mode, FDSS 7000EX); format: cell-based; conditions: Percent Activity measured to EC100 of Carbachol
Sequence (P08172 whole entry): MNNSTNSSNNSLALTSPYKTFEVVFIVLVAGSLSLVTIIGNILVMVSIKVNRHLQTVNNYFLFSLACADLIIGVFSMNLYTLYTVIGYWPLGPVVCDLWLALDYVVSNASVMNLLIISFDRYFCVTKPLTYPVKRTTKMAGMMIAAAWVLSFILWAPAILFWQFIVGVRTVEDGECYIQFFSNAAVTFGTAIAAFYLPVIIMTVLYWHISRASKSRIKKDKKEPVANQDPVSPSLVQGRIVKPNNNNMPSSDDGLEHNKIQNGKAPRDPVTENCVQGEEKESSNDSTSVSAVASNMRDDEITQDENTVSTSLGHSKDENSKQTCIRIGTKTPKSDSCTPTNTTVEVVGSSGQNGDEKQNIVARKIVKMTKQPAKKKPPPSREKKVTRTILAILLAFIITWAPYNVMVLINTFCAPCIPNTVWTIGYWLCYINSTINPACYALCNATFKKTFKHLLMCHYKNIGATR
Would you mind telling me the reported M2 FDSS PA of each entry?
One number for each entry, in %.

Study these solved cases before continuing.
Compound	Property name	Val
O=C(N1CC2(CC[C@@H](N3CCC(c4ccccc4OC4CCOCC4)CC3)C2)C1)C1(F)CC1 (single isomer, unassigned) [Example 9F]	M2 FDSS PA	0
Fc1ccc(OC2CCOCC2)c(C2CCN([C@@H]3CCC4(C3)CN(c3cncnc3)C4)CC2)c1 (single isomer, unassigned) [Example 10H]	M2 FDSS PA	0

For the next question, use this compound.
For the compound Fc1ccc(OC2CC3(COC3)C2)c(C2CCN([C@@H]3CCC4(C3)CN(c3cncnc3)C4)CC2)c1 (single isomer, unassigned) [Example 10E] , give its measured M2 FDSS PA value. 11

====

Field: Emax. Provide a value for each of the compounds that follow.
Biological target: human cloned CHRM5 receptor (M5_CHO) (Homo sapiens)
Construct: expressed in transfected cells; host or cells: CHO (M5_CHO)
Sequence (P08912 1-532): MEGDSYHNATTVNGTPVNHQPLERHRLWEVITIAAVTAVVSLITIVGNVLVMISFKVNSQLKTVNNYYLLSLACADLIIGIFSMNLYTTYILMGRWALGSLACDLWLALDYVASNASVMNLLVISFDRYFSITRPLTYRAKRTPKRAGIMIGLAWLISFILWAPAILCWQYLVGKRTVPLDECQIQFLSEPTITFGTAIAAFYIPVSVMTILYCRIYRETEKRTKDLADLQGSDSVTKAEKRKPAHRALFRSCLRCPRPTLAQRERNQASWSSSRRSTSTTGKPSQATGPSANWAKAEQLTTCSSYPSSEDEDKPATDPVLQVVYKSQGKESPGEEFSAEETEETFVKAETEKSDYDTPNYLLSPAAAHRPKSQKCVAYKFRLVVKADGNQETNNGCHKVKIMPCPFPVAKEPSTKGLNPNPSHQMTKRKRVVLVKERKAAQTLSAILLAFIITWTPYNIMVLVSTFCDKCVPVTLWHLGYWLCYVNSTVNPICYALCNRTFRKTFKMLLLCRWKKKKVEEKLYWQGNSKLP
Assay: CHRM5 Ca++ Flux Assay (agonist mode, FDSS 7000EX)
Format: cell-based
Details: Percent Activity measured to EC100 of Carbachol; read-out: M5 FDSS PA

Answered examples (6):
Compound	Tgt	Emax
Fc1ccc(C2CCOCC2)c(C2CCN([C@@H]3CCC4(C3)CN(c3nnco3)C4)CC2)c1 [Example 2I]	human cloned CHRM5 receptor (M5_CHO) (Homo sapiens)	0%
O=C(N1CC2(CC[C@H](N3CCC(c4ccccc4C4CCOCC4)CC3)C2)C1)C1(F)CC1 (single isomer, unassigned) [Example 9M]	human cloned CHRM5 receptor (M5_CHO) (Homo sapiens)	0%
c1ccc(C2CCN([C@@H]3CCC4(C3)CN(c3nnco3)C4)CC2)c(OC[C@H]2COCCO2)c1 [Example 1C]	human cloned CHRM5 receptor (M5_CHO) (Homo sapiens)	0%
Fc1ccc(N2CC3(CC[C@@H](N4CCC(c5ccccc5C5CCOCC5)CC4)C3)C2)cn1 [Example 5CC]	human cloned CHRM5 receptor (M5_CHO) (Homo sapiens)	0%
c1ccc(C2CCOC2)c(C2CCN([C@@H]3CCC4(C3)CN(c3nnco3)C4)CC2)c1 (stereo partly shown) [Example 2K]	human cloned CHRM5 receptor (M5_CHO) (Homo sapiens)	0%
FC1(COc2ccccc2C2CCN([C@@H]3CCC4(C3)CN(c3nncs3)C4)CC2)COC1 [Example 1H]	human cloned CHRM5 receptor (M5_CHO) (Homo sapiens)	10%

Okay, now this compound:
Dear colleague, please send me the reported Emax for O=C(C1COC1)N1CC2(CC[C@@H](N3CCC(c4ccccc4OCCC(F)(F)F)CC3)C2)C1 [Example 7GG] when you can. 14%

====

target: human cloned CHRM4 receptor (M4_CHO cells) (Homo sapiens); construct: expressed in transfected cells; host or cells: CHO-K1; assay: CHRM4 Ca++ Flux Assay (agonist mode, FDSS 7000EX); assay type: cell-based; conditions: Percent Activity, read-out: M4 FDSS PA
Exercise: for every item that follows, state its recorded Emax.
One number for each entry, in %.

Known results for compounds:
Smiles string	Tgt	Emax (%)
CC(C)(O)COc1ccccc1C1CCN([C@@H]2CCC3(C2)CN(c2cncnc2)C3)CC1	human cloned CHRM4 receptor (M4_CHO cells) (Homo sapiens)	53
c1ccc(C2CCN([C@@H]3CCC4(C3)CN(c3nnco3)C4)CC2)c(OC2CCOCC2)c1	human cloned CHRM4 receptor (M4_CHO cells) (Homo sapiens)	88
O=C(C1COC1)N1CC2(CC[C@@H](N3CCC(c4ccccc4OCC4CC4)CC3)C2)C1	human cloned CHRM4 receptor (M4_CHO cells) (Homo sapiens)	55

# batch size: 5; output Emax per entry
1. CC1(COc2ccccc2C2CCN([C@@H]3CCC4(C3)CN(c3nnco3)C4)CC2)CCOCC1
2. CC(C)(O)COc1ccccc1C1CCN([C@@H]2CCC3(C2)CN(c2ncns2)C3)CC1
3. COCCOc1ccccc1C1CCN([C@@H]2CCC3(C2)CN(c2nncs2)C3)CC1
4. COCCOc1ccccc1C1CCN([C@@H]2CCC3(C2)CN(c2ccnnc2)C3)CC1
5. c1ccc(C2CCN([C@@H]3CCC4(C3)CN(c3nnco3)C4)CC2)c(O[C@@H]2CCOC2)c1

86
68
60
44
95

====

molecular target: human cloned CHRM2 receptor (M2_CHO cells) (Homo sapiens); construct: expressed in transfected cells; host or cells: CHO-K1; experiment: CHRM2 Ca++ Flux Assay (agonist mode, FDSS 7000EX); assay type: cell-based; conditions: Percent Activity measured to EC100 of Carbachol; read-out: M2 FDSS PA
Property name: Emax (%)
Give bare numbers, in %.

Smiles string	Emax [%]
CC(C)Oc1ccccc1C1CCN([C@@H]2CCC3(C2)CN(C(=O)C2COC2)C3)CC1	23

Hey, quick one: what's Emax for each of these?
1. c1ccc(C2CCN([C@@H]3CCC4(C3)CN(c3cncnc3)C4)CC2)c(O[C@@H]2CCOC2)c1
2. c1ccc(C2CCN([C@@H]3CCC4(C3)CN(c3nnco3)C4)CC2)c(OC2CCOCC2)c1

1: 7; 2: 22
